# Test system: SW-620 colon
# test: NCI-60 one-dose screen, 48 h
# testContext: 10 µM unless noted
Compounds without any hit were thinned out: in the full panel of roughly 83,000, 20% have a hit. The source made the active and inactive calls. The calls were made as follows: active = growth percent below 10; inactive = the rest.
Possible outcomes: 1 (yes) (active), 0 (no) (inactive)

{"columns": ["molecule", "measuredTarget", "classLabel"],
 "data": [
  ["CN=C(NN)NN", "SW-620 colon", "0 (no)"],
  ["CC12CCC(=O)C=C1CCC1C2CCC2(C)C(C(=O)COC(=O)Cc3ccc(N(CCCl)CCCl)cc3)CCC12 (stereo not given)", "SW-620 colon", "0 (no)"],
  ["C[C@@H]1O[C@@H](O[C@H]2CC[C@@]3(C)[C@H](CCC4[C@@H]3C(O)C[C@]3(C)[C@@H](c5ccc(=O)oc5)CC[C@]43O)C2)[C@H](O)[C@H](O)[C@H]1O (stereo not given in full)", "SW-620 colon", "1 (yes)"],
  ["NC(Cc1ccc2c(c1)OCO2)c1ccc2c(c1)OCO2 (stereo not given)", "SW-620 colon", "0 (no)"],
  ["n1nc(-c2nonc2-c2nn[nH]n2)n[nH]1", "SW-620 colon", "0 (no)"],
  ["O=C(CCl)NCNC(=O)CCl", "SW-620 colon", "0 (no)"],
  ["Cc1ccc2oc(=O)c3c(c2c1)OC(N)=C(C#N)C3c1ccco1 (stereo not given)", "SW-620 colon", "0 (no)"],
  ["Cc1cc(C)nc(C)c1.[Cl][Hg][Cl]", "SW-620 colon", "0 (no)"],
  ["CCOC(=O)Nc1cc(Cl)c([N+](=O)[O-])c(NC(=O)OCC)n1", "SW-620 colon", "0 (no)"],
  ["C/C(=C\\c1cc(C(F)(F)F)n(-c2ccc(N)cc2)n1)[C@@H]1C[C@@H]2O[C@]2(C)CCC[C@H](C)[C@H](O)[C@@H](C)C(=O)C(C)(C)[C@@H](O)CC(=O)O1", "SW-620 colon", "0 (no)"],
  ["CC(C)CCC[C@@H](C)[C@H]1CC[C@H]2[C@@H]3CC=C4C[C@@H](OC(=O)Cc5ccc(N(CCCl)CCCl)cc5)CC[C@]4(C)[C@H]3CC[C@]12C", "SW-620 colon", "0 (no)"],
  ["CC1(C)N=C(N)N=C(N)N1c1ccc(OCCCCNC(=O)c2ccc(S(=O)(=O)F)cc2)c(Cl)c1", "SW-620 colon", "0 (no)"],
  ["O=C(N/N=C/c1ccc(N(CCCl)CCCl)cc1)c1cc(=O)[nH]c(=O)[nH]1", "SW-620 colon", "0 (no)"],
  ["CC1(C)N=C(N)N=C(N)N1c1ccc(CCC(=O)Nc2cccc(S(=O)(=O)F)c2)cc1", "SW-620 colon", "0 (no)"],
  ["CCC(/C=C(C)/C=C/C(=O)c1c(O)c(-c2ccc(O)cc2)c[nH]c1=O)CO (stereo not given)", "SW-620 colon", "0 (no)"],
  ["Cc1cccc(N=C2c3cc([N+](=O)[O-])ccc3-c3c2cc([N+](=O)[O-])cc3[N+](=O)[O-])c1", "SW-620 colon", "1 (yes)"],
  ["O=S(=O)(F)c1ncnc2nc[nH]c12", "SW-620 colon", "0 (no)"],
  ["O=[N+]([O-])c1ccc(F)c([N+](=O)[O-])c1F", "SW-620 colon", "0 (no)"],
  ["CC1COC(=O)C1 (stereo not given)", "SW-620 colon", "0 (no)"],
  ["CC1(C)N=C(N)N=C(N)N1c1ccc(CCCCc2ccc(S(=O)(=O)F)cc2)cc1", "SW-620 colon", "0 (no)"]
]}
